A collection of molecules and their measured inhibition at 5 µM
TARGET SYSTEM: human Trypsin (Homo sapiens, UniProt P07477)
PROTOCOL SUMMARY: Selectivity screening, human serine protease trypsin
Type: biochemical
CONDITION SUMMARY: at 5 μM; read-out: inhibition of human Trypsin
Where a SMILES comes first, the peptide text is derived from it. [ ]: non-standard residue; d: D form. The star is where a group is joined. Arachidoyl = CCCCCCCCCCCCCCCCCCCC(=O)*; Palmitoyl = CCCCCCCCCCCCCCCC(=O)*; β3hK = NCCCC[C@H](N)CC(=O)O

These solved cases illustrate the format of a correct answer.
- MOLECULE: "CCCCCCCCCCCCCCCC(=O)N[C@H](CCCNC(=N)N)C(=O)N[C@@H](CCC(N)=O)C(=O)N[C@@H](Cc1ccccc1)C(N)=O [compound 44] (Palmitoyl-[dR]-Gln-Phe-NH2)"
  ENDPOINT NAME: "inhibition at 5 µM"
  MEASURED VALUE: "< 10%"
- MOLECULE: "CCCCCCCCCCCCCCCCCCCC(=O)N[C@@H](CCCCN)C(=O)N1CCC[C@H]1C(=O)N[C@@H](C)C(=O)N[C@@H](CCCCN)C(N)=O [compound 125] (Arachidoyl-KPAK-NH2)"
  ENDPOINT NAME: "inhibition at 5 µM"
  MEASURED VALUE: "< 10%"

I'd like to know its inhibition at 5 µM. The molecule in question is CCCCCCCCCCCCCCCC(=O)N[C@@H](CCCCN)CC(=O)N[C@@H](C)C(=O)N[C@H](C)C(=O)N[C@@H](CCCCN)C(N)=O [compound 114] (Palmitoyl-[β3hK]A[dA]K-NH2)
< 10%

====

TARGET SYSTEM: human Trypsin (Homo sapiens, UniProt P07477)
PROTOCOL SUMMARY: Selectivity screening, human serine protease trypsin
Type: biochemical
CONDITION SUMMARY: at 25 μM; read-out: inhibition of human Trypsin
Where a SMILES comes first, the peptide text is derived from it. [ ]: non-standard residue; d: D form. The star is where a group is joined. Palmitoyl = CCCCCCCCCCCCCCCC(=O)*; β3hK = NCCCC[C@H](N)CC(=O)O
ENDPOINT NAME: inhibition at 25 µM

These solved cases illustrate the format of a correct answer.
- COMPOUND: "CCCCCCCCCCCCCCCC(=O)N[C@@H](CCCCN)CC(=O)N1CCC[C@H]1C(=O)N[C@@H](C)C(=O)N[C@@H](Cc1ccccc1)C(N)=O [compound 116] (Palmitoyl-[β3hK]PAF-NH2)"
  inhibition at 25 µM: "< 20%"
- COMPOUND: "CCCCCCCCCCCCCCCC(=O)N[C@@H](CCCCN)C(=O)N[C@@H](C)C(=O)N[C@@H](C)C(=O)N[C@@H](CCCCN)C(=O)O [compound 189] (Palmitoyl-KAAK-OH)"
  inhibition at 25 µM: "< 20%"

I'd like to know its inhibition at 25 µM. The compound in question is CCCCCCCCCCCCCCCC(=O)N[C@@H](CCCCN)CN1CCC[C@H]1C(=O)N[C@@H](C)C(=O)N[C@H](Cc1c[nH]c2ccccc12)C(N)=O
< 20%

====

A collection of compounds and their measured IC50
TARGET SYSTEM: WNV protease (West Nile virus, UniProt P06935)
Construct: a trypsin-like serine protease domain in the N-terminal region of the flaviviral NS3 proteins
Sequence (P06935 1424-1463): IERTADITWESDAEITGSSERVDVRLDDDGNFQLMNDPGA
Sequence (P06935 1502-1679): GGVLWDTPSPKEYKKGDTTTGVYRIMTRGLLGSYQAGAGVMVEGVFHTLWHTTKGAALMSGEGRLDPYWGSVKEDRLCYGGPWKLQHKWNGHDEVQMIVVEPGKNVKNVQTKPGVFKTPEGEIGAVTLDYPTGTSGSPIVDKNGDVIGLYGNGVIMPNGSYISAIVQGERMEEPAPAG
PROTOCOL SUMMARY: WNV protease assay (analogous procedure)
Format: biochemical
CONDITION SUMMARY: read-out: IC50 for WNNV
Where a SMILES comes first, the peptide text is derived from it. [ ]: non-standard residue; d: D form. The star is where a group is joined. Arachidoyl = CCCCCCCCCCCCCCCCCCCC(=O)*; Palmitoyl = CCCCCCCCCCCCCCCC(=O)*; hPhe = N[C@@H](CCc1ccccc1)C(=O)O

These solved cases illustrate the format of a correct answer.
- COMPOUND: "CCCCCCCCCCCCCCCCCCCC(=O)N[C@@H](CCCCN)C(=O)N[C@@H](C)C(=O)N[C@@H](C)C(=O)N[C@H](CCCCN)C(N)=O [compound 132] (Arachidoyl-KAA[dK]-NH2)"
  IC50: "≤ 40 µM"
- COMPOUND: "CCCCCCCCCCCCCCCC(=O)N[C@@H](CCCCN)C(=O)N[C@@H](C)C(=O)N[C@@H](C)C(=O)N[C@@H](CCc1ccccc1)C(N)=O [compound 90] (Palmitoyl-KAA[hPhe]-NH2)"
  IC50: "≤ 40 µM"

I'd like to know its IC50. The compound in question is CCCCCCCCCCCCCCCC(=O)N[C@H](CCCCN)C(=O)N[C@@H](C)C(=O)N[C@@H](C)C(=O)N[C@@H](CCCCN)C(N)=O [compound 115] (Palmitoyl-[dK]AAK-NH2)
≤ 40 µM

I'd like to know its IC50. The compound in question is CCCCCCCCCCCCCCCC(=O)N[C@@H](CCCCN)C(=O)N1CCC[C@H]1C(=O)N[C@@H](C)C(=O)N[C@@H](C(N)=O)c1ccc(OCc2ccccc2)cc1
≤ 40 µM

====

TARGET SYSTEM: WNV protease (West Nile virus)
Construct: a trypsin-like serine protease domain in the N-terminal region of the flaviviral NS3 proteins
PROTOCOL SUMMARY: WNV protease assay (analogous procedure)
Type: biochemical
CONDITION SUMMARY: at 50 μM
Where a SMILES comes first, the peptide text is derived from it. [ ]: non-standard residue; d: D form. The star is where a group is joined. Palmitoyl = CCCCCCCCCCCCCCCC(=O)*; hPhe = N[C@@H](CCc1ccccc1)C(=O)O; β3hK = NCCCC[C@H](N)CC(=O)O
ENDPOINT NAME: inhibition at 50 µM

These solved cases illustrate the format of a correct answer.
- MOLECULE: "CCCCCCCCCCCCCCCC(=O)N[C@@H](CCCNC(=N)N)C(=O)N[C@@H](CCC(N)=O)C(=O)N[C@@H](Cc1ccccc1)C(N)=O [compound 43] (Palmitoyl-Arg-Gln-Phe-NH2)"
  ENDPOINT NAME: "inhibition at 50 µM"
  MEASURED VALUE: "≥ 25%"
- MOLECULE: "CCCCCCCCCCCCCCCC(=O)N[C@@H](CCCCN)C(=O)N[C@@H](C)C(=O)N[C@@H](C)C(=O)N[C@@H](Cc1ccccc1)C(N)=O [compound 17] (Palmitoyl-KAAF-NH2)"
  ENDPOINT NAME: "inhibition at 50 µM"
  MEASURED VALUE: "≥ 25%"

I'd like to know its inhibition at 50 µM. The molecule in question is CCCCCCCCCCCCCCCC(=O)N[C@@H](CCCCN)CC(=O)N1CCC[C@H]1C(=O)N[C@@H](C)C(=O)N[C@@H](CCc1ccccc1)C(N)=O [compound 117] (Palmitoyl-[β3hK]PA[hPhe]-NH2)
≥ 25%

====

TARGET SYSTEM: DENV protease (Dengue virus type 2)
Construct: The virus-encoded dengue protease comprises the amino-terminal 180 amino acids of NS3 (NS3pro) of the polyprotein
Sequence (P29990 1398-1437): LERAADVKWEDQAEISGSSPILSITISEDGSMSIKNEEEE
Sequence (P29990 1476-1653): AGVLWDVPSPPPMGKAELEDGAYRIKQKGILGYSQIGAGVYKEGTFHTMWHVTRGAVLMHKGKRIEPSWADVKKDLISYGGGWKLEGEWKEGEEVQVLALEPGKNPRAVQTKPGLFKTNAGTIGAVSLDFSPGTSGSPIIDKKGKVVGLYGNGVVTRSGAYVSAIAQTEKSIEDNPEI
PROTOCOL SUMMARY: biochemical
CONDITION SUMMARY: at 50 μM; read-out: inhibition of DENV
Where a SMILES comes first, the peptide text is derived from it. [ ]: non-standard residue; d: D form. The star is where a group is joined. Palmitoyl = CCCCCCCCCCCCCCCC(=O)*; hLys = NCCCCC[C@H](N)C(=O)O; Propionyl = CCC(=O)*; NHPr = CCCN*
A collection of molecules and their measured inhibition at 50 µM

These solved cases illustrate the format of a correct answer.
- MOLECULE: "CCCNC(=O)[C@H](CCCCN)NC(=O)[C@H](CCCCN)NC(=O)[C@H](CCCCN)NC(=O)[C@H](Cc1ccccc1)NC(=O)CC [compound 23] (Propionyl-FKKK-NHPr)"
  TARGET SYSTEM: "DENV protease (Dengue virus type 2)"
  inhibition at 50 µM: "≥ 25%"
- MOLECULE: "CC(=O)N[C@@H](C)C(=O)N[C@@H](CCCNC(=N)N)C(=O)N[C@@H](CCC(N)=O)C(=O)N[C@@H](Cc1ccccc1)B(O)O"
  TARGET SYSTEM: "DENV protease (Dengue virus type 2)"
  inhibition at 50 µM: "≥ 25%"
- MOLECULE: "CCCCCCCCCCCCCCCC(=O)N[C@@H](CCCCCN)C(=O)N1CCC[C@H]1C(=O)N[C@@H](CCCCN)C(N)=O [compound 121] (Palmitoyl-[hLys]-Pro-Lys-NH2)"
  TARGET SYSTEM: "DENV protease (Dengue virus type 2)"
  inhibition at 50 µM: "≥ 25%"

I'd like to know its inhibition at 50 µM. The molecule in question is CCCCCCCCCCCCCCCC(=O)N[C@@H](C)C(=O)N[C@@H](CCCNC(=N)N)C(=O)N[C@@H](CCC(N)=O)C(=O)N[C@@H](CCCCN)B(O)O
≥ 25%

I'd like to know its inhibition at 50 µM. The molecule in question is CCCCCCCCCCCCCCCC(=O)N[C@@H](CCCNc1ncc[nH]1)C(=O)N[C@@H](CCC(N)=O)C(=O)N[C@@H](Cc1ccccc1)C(N)=O
≥ 25%

I'd like to know its inhibition at 50 µM. The molecule in question is CCCCCCCCCCCCCCCC(=O)N[C@@H](CCCCN)C(=O)N[C@@H](C)C(=O)N[C@@H](C)C(=O)N[C@@H](CCc1c[nH]cn1)C(N)=O
≥ 25%
